Reference for the values: patent US20240084003A1

# targetDesc: T1, human CD22-ECD-His protein (human, UniProt P20273 20-687)
# T1 construct: Recombinant, from HEK293E cells; also called hCD22-ECD-His; human CD22-His protein; not shown: His tag
# T1 sequence: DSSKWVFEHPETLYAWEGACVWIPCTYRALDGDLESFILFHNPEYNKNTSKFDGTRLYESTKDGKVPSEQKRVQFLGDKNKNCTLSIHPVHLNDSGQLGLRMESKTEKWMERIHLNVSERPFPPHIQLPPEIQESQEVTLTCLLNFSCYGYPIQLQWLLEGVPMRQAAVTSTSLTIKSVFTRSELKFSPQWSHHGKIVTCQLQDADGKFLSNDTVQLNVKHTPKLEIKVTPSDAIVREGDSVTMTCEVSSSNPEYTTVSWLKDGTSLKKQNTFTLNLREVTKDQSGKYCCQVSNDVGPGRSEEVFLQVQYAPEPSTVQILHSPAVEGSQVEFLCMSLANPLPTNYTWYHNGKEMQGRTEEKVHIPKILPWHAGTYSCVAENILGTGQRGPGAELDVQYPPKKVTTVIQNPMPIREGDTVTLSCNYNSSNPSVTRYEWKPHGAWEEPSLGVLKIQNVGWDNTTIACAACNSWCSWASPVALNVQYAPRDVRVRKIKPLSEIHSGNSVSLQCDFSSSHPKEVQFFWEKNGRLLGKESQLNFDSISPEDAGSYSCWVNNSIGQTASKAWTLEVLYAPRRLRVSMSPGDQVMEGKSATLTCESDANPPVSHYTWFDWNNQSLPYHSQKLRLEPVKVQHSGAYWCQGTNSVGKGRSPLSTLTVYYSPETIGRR
# assayNotes: SPR (Biacore), antibody captured on Protein A chip, CD22-ECD-His in solution
Exercise: for every item that follows, state its recorded koff.
Record the value in s⁻¹, omitting the unit from your answer.

koff in this record for F1.280.1 (antibody, human IgG1, kappa, V domains shown, Chimeric IgG1 kappa) VH: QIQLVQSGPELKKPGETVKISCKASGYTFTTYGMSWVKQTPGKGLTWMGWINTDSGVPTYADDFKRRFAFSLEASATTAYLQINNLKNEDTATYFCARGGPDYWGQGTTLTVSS VL: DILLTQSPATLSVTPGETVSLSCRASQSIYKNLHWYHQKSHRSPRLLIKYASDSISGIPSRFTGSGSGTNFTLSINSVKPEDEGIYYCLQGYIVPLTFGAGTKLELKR : 0.000423

# binder F2.205.9 (antibody, human IgG1, lambda, V domains shown, Chimeric IgG1 lambda) VH: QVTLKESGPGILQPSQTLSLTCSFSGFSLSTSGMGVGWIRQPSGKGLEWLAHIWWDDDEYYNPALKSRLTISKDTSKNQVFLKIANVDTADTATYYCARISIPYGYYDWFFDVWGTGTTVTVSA VL: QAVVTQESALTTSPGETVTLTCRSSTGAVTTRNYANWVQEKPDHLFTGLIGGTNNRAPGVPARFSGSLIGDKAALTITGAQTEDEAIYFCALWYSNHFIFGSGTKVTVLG ; its koff = 0.000386
